Target: T1, cyno FcRn/b2M (cyno, UniProt Q8SPV9 24-297; Q8SPW0 21-119, biotinylated)
T1 construct: bought recombinant biotinylated protein (Immunitrack ITF05 or ACRO FCM-C82W5); also called cFcRn; cFcRn/cb2M
T1 sequence (Q8SPV9 24-297 limits assumed, chain 1 of 2): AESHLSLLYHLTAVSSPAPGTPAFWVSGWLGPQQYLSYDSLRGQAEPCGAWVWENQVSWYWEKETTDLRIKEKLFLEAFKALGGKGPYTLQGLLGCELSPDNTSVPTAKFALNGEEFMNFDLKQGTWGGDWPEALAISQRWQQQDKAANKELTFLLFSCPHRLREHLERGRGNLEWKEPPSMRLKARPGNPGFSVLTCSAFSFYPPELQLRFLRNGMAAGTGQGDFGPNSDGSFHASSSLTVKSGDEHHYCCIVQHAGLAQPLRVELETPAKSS
T1 sequence (Q8SPW0 21-119 limits assumed, chain 2 of 2): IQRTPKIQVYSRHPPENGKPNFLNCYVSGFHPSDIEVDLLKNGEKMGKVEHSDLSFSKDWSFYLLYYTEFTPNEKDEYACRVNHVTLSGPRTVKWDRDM
Experiment: SPR off-rate; pH 7.4 vs pH 6.0;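 further: surface plasmon resonance with diluted periplasmic extracts flowed over ligand surfaces, 120 s association and 600–3600 s dissociation at 25 °C, running buffer containing 150 mM NaCl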
measured.metric: kd ratio pH 7.4/6.0

(Q) Specify reported kd ratio pH 7.4/6.0 for the binder shown: T0263018B11 S100Q (VHH, name in Kabat numbering, FLAG3-His6 tagged) VHH: EVQLVESGGGVVQPGGSLRLSCAASGFTFSSYAMYWVRQAPGKGLEWVSAISSGGGSTDYADSVKGRFTISRDNSKNTLYLQMNSLRPEDTALYYCAADTLYTQLTWYSYWGQGTLVTVSS
(A) 69

(Q) Supply reported kd ratio pH 7.4/6.0 belonging to this binder: T0263018B11 S52E (VHH, name in Kabat numbering, FLAG3-His6 tagged) VHH: EVQLVESGGGVVQPGGSLRLSCAASGFTFSSYAMYWVRQAPGKGLEWVSAIESGGGSTDYADSVKGRFTISRDNSKNTLYLQMNSLRPEDTALYYCAADTLYTSLTWYSYWGQGTLVTVSS
(A) 20

(Q) Return reported kd ratio pH 7.4/6.0. Input binder: T0263018B11 D58S (VHH, name in Kabat numbering, FLAG3-His6 tagged) VHH: EVQLVESGGGVVQPGGSLRLSCAASGFTFSSYAMYWVRQAPGKGLEWVSAISSGGGSTSYADSVKGRFTISRDNSKNTLYLQMNSLRPEDTALYYCAADTLYTSLTWYSYWGQGTLVTVSS
(A) 12

(Q) Assign kd ratio pH 7.4/6.0 to the following record: T0263018B11 S52aR (VHH, name in Kabat numbering, FLAG3-His6 tagged) VHH: EVQLVESGGGVVQPGGSLRLSCAASGFTFSSYAMYWVRQAPGKGLEWVSAISRGGGSTDYADSVKGRFTISRDNSKNTLYLQMNSLRPEDTALYYCAADTLYTSLTWYSYWGQGTLVTVSS
(A) 61
